Tested on: 786-0
Test Details: NCI tumour cell line growth inhibition, 48 h
Calls of active or inactive are those of the source. Cut-off read from the data, not from the text of the source: active = GI50 up to about 1.1 µM and inactive = higher.
Provide the reported GI50 of each item.

The cases that follow already have their GI50 on record.
Molecule: COc1nc(NC2OCC(OC(C)=O)C(OC(C)=O)C2OC(C)=O)c(/N=C\C=N\c2c(NC3OCC(OC(C)=O)C(OC(C)=O)C3OC(C)=O)nc(OC)n(C)c2=O)c(=O)n1C (centres undefined)
Obs Value: > 100 µM (inactive)

Molecule: O=C(/C=C/c1ccccc1O)c1cccnc1
Obs Value: > 100 µM (inactive)

Molecule: Brc1cccc[n+]1-c1ccc2cc(-[n+]3ccccc3Br)ccc2c1
Obs Value: 26.4 µM (inactive)

Molecule: C1OCC2S[C@@H]3COCO[C@@H]3C2O1 (some centres undefined)
Obs Value: > 100 µM (inactive)

Hi, could you look up GI50 for each item in my list?
1. Nc1nc(Nc2ccccc2)sc1C(=O)c1c[nH]c2ccccc12
2. Nc1nc(Cl)cc(NCC2(CO)COC2)n1
3. C/C=C(/C)C(=O)O[C@H]1C(C)=C[C@]23C(=O)[C@@H](C=C(COC(C)=O)[C@@H](O)[C@]12O)[C@H]1[C@@H](C[C@H]3C)[C@@]1(C)OC(=O)/C(C)=C\C
4. C(/C=C/N1CCCC1)=C\c1nc(N2CCCC2)c2ccccc2n1
5. c1ccc(C(NCC2CCO2)(c2ccccc2)c2ccccc2)cc1 (centres undefined)

*A*
["5.52 µM (inactive)", "> 100 µM (inactive)", "1.52 µM (inactive)", "16.6 µM (inactive)", "20 µM (inactive)"]
